Target: NRAS Q61R (Homo sapiens (Human), UniProt P01111+P62937, Q61R)
Sequence (P01111 whole entry Q61R): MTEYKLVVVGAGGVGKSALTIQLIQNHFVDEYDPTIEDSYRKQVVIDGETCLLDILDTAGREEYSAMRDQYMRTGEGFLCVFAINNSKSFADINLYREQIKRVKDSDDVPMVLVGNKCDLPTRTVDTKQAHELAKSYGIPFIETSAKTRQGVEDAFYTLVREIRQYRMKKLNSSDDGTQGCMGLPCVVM
Sequence (P62937 whole entry): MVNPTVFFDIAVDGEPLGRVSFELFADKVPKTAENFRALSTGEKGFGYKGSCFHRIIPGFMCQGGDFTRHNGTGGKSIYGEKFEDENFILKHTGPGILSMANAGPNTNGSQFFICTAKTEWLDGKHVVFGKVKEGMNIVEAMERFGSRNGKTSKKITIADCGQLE
Test: Ras-Raf disruption/FRET/MOA assay (BRAF RBD, Cyclophilin A)
Type: biochemical
Protocol: Compound is present in plate wells as a 10-point 3-fold dilution series starting at a final concentration of 30 μM. After incubation at 25° C. for 3 hours, a mixture of Anti-His Eu—W1024 and anti-GST allophycocyanin is then added to assay sample wells at final concentrations of 10 nM and 50 nM, respectively, and the reaction incubated for an additional 1.5 hours. […]
Property: IC50; scope: individual molecules

Past entries and their recorded results:
- Structure smiles: "CCn1c(-c2cccnc2[C@H](C)OC)c2c3cc(ccc31)-c1csc(n1)C[C@H](NC(=O)[C@H](C(C)C)N(C)C(=O)N(C)C1CN(C)C1)C(=O)N1CCC[C@H](N1)C(=O)OCC(C)(C)C2"
  IC50: "100 to 1000 nM"
- Structure smiles: "CCn1c(-c2cccnc2[C@H](C)OC)c2c3cc(ccc31)-c1csc(n1)C[C@H](NC(=O)[C@H](C(C)C)N(C)C(=O)N1CC[C@@]13CCCNC3)C(=O)N1CCC[C@H](N1)C(=O)OCC(C)(C)C2"
  IC50: "1000 to 10000 nM"

Next molecule, IC50 to be filled in.
Looking up CCn1c(-c2cccnc2[C@H](C)OC)c2c3cc(ccc31)-c1csc(n1)C[C@H](NC(=O)[C@H](C(C)C)N(C)C(=O)N1CCCC[C@H](N(C)C)C1)C(=O)N1CCC[C@H](N1)C(=O)OCC(C)(C)C2 , I see its IC50 listed as 100 to 1000 nM
